Endpoint summary: IC50, system: UniProt:P24530, multiple sources combined.
Values of IC50 strictly less than 10 µM map to Y, and values of at least 10 µM map to N.

Example entries and their recorded answers appear below.
{"MOLECULE": "COc1ccccc1Oc1c(NS(=O)(=O)c2ccc(C(C)(C)C)cc2)nc(-c2cccs2)nc1OCCOC(=O)Nc1ccccn1", "CATEGORY_LABEL": "Y"}
{"MOLECULE": "COCCOc1ccc([C@H]2[C@H](C(=O)O)[C@@H](c3ccc4c(c3)OCO4)CN2CC(=O)NC(c2ccccc2C)c2ccccc2C)cc1 (stereo in doubt; form 1)", "CATEGORY_LABEL": "Y"}

Please examine the following record next.
Hello, is IC50 of the following molecule strictly smaller than 10 µM? COc1cc(C#N)c(NC(=O)c2sccc2S(=O)(=O)Nc2onc(C)c2Cl)cc1OC
N

----------
Target chain: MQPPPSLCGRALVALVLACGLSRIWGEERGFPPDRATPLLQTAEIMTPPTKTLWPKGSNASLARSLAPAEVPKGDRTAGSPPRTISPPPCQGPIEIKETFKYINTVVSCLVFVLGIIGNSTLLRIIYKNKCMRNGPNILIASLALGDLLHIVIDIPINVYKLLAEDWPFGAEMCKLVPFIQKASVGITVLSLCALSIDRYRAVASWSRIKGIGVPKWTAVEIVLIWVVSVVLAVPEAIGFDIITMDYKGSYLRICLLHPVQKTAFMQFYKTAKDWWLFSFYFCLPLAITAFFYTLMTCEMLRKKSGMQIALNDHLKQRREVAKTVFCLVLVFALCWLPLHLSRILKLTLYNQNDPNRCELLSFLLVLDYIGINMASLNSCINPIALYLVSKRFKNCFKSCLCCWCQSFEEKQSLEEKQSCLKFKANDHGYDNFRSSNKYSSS
Endpoint summary: IC50, system: the protein given by its sequence, multiple sources combined.
Entry rule: numbers only, all in µM.

Example entries and their recorded answers appear below.
{"COMPOUND": "Cc1noc(NS(=O)(=O)c2ccsc2C(=O)c2ccc3c(c2)OCO3)c1Br", "REPORTED": 15.4}
{"COMPOUND": "CCCCc1ccc(NC(=O)c2sccc2S(=O)(=O)Nc2onc(C)c2Br)cc1", "REPORTED": 6.17}
{"COMPOUND": "COc1cc(C)ccc1S(=O)(=O)NC(=O)C(c1ccc2c(c1)OCO2)c1cn(C)c2cc(C(N)=O)ccc12 (stereo not given)", "REPORTED": 0.302}

Now for a further compound.
Look up IC50 with the protein given by its sequence for this compound: CC(C)OCCOc1ccc([C@H]2[C@H](C(=O)O)[C@@H](c3ccc4c(c3)OCO4)CN2CC(=O)NC(c2ccccc2)C(C)(C)C)cc1 (stereo not given in full)
0.00071

----------
Endpoint summary: log10(IC50), system: Endothelin receptor type B (Homo sapiens), multiple sources combined.
A value of 2 here means IC50 of 100 in nM, since values are log10.

Example entries and their recorded answers appear below.
{"COMPOUND": "CCC(C)c1ccc(NC(=O)c2sccc2S(=O)(=O)Nc2onc(C)c2Br)cc1 (stereo not drawn)", "REPORTED": 3.77}
{"COMPOUND": "CNCC(=O)OCCOc1nc(C)nc(NS(=O)(=O)c2ccc(C(C)(C)C)cc2)c1Oc1ccccc1OC", "REPORTED": 2.48}
{"COMPOUND": "Cc1noc(NS(=O)(=O)c2ccsc2C(=O)Nc2ccc(C(C)C)cc2)c1Br", "REPORTED": 3.64}

Look up log10(IC50) with Endothelin receptor type B (Homo sapiens) for this compound: COc1ccc([C@@H]2c3nc(NC(C)C)ccc3[C@H](c3ccc4c(c3)OCO4)[C@H]2C(=O)O)c(O)c1
2.46

Look up log10(IC50) with Endothelin receptor type B (Homo sapiens) for this compound: COc1ccc([C@@H]2c3nc(NC(C)C)ccc3[C@H](c3ccc4c(c3)OCO4)[C@H]2C(=O)O)c(CN(C)C(C)=O)c1
1.63

Look up log10(IC50) with Endothelin receptor type B (Homo sapiens) for this compound: COc1ccc([C@@H]2c3nc(N4CCCC4)ccc3C(c3ccc4c(c3)OCO4)[C@H]2C(=O)O)cc1 (single isomer, unassigned)
1.32

Look up log10(IC50) with Endothelin receptor type B (Homo sapiens) for this compound: Cc1ccccc1S(=O)(=O)NC(=O)C(c1ccc2c(c1)OCO2)c1cn(C)c2cc(C(N)=O)ccc12 (stereo not drawn)
3.03

Look up log10(IC50) with Endothelin receptor type B (Homo sapiens) for this compound: COc1ccc(C(=O)/C(Cc2cccc(OC)c2)=C(\C(=O)O)c2ccc3c(c2)OCO3)cc1
2.41

Look up log10(IC50) with Endothelin receptor type B (Homo sapiens) for this compound: CCCC(NC(=O)CN1C[C@H](c2ccc3c(c2)OCO3)[C@@H](C(=O)O)[C@@H]1c1ccc(OC)cc1)c1ccccc1 (stereo partly drawn)
0.86

Look up log10(IC50) with Endothelin receptor type B (Homo sapiens) for this compound: CC(C)c1ccc(S(=O)(=O)NC(=O)C(c2ccc3c(c2)OCO3)c2cn(C)c3cc(C(N)=O)ccc23)cc1 (stereo not drawn)
1.53

Look up log10(IC50) with Endothelin receptor type B (Homo sapiens) for this compound: CCOc1cc(OC)ccc1[C@@H]1c2nc(NC(C)C)ccc2[C@H](c2ccc3c(c2)OCO3)[C@H]1C(=O)O
1.65

Look up log10(IC50) with Endothelin receptor type B (Homo sapiens) for this compound: COc1ccc([C@H]2[C@H](C(=O)O)[C@@H](c3ccc4c(c3)OCO4)CN2CC(=O)NC(c2ccccc2)c2ccccc2C)cc1 (stereo partly drawn)
0.53

Look up log10(IC50) with Endothelin receptor type B (Homo sapiens) for this compound: CCc1cc(F)cc(CC)c1NC(=O)CN1C[C@H](c2ccc3c(c2)OCO3)[C@@H](C(=O)O)[C@@H]1c1ccc(OC)cc1
-0.10

Look up log10(IC50) with Endothelin receptor type B (Homo sapiens) for this compound: Cc1noc(NS(=O)(=O)c2ccsc2C(=O)Oc2ccc3c(c2)OCO3)c1C
4.69

Look up log10(IC50) with Endothelin receptor type B (Homo sapiens) for this compound: COc1ccc([C@@H]2c3nc(C4CC4)ccc3[C@H](c3ccc4c(c3)OCO4)[C@H]2C(=O)O)cc1
1.80

Look up log10(IC50) with Endothelin receptor type B (Homo sapiens) for this compound: COc1ccc([C@@H]2c3nc(NC(C)C)ccc3[C@H](c3ccc4c(c3)OCO4)[C@H]2C(=O)O)c(OC)c1
1.40

Look up log10(IC50) with Endothelin receptor type B (Homo sapiens) for this compound: CCOc1ccc([C@H]2[C@H](C(=O)O)[C@@H](c3ccc4c(c3)OCO4)CN2CC(=O)Nc2c(CC)cccc2CC)cc1 (stereo in doubt; 37)
0.08

Look up log10(IC50) with Endothelin receptor type B (Homo sapiens) for this compound: Cn1cc(C(C(=O)NS(=O)(=O)c2ccccc2)c2ccc3c(c2)OCO3)c2ccc(C(N)=O)cc21 (stereo not drawn)
3.41

Look up log10(IC50) with Endothelin receptor type B (Homo sapiens) for this compound: CCc1cc2c(cc1Cn1c(C(=O)O)c(Cc3cccc(C(=O)O)c3)c(=O)c3cc(OCOC)ccc31)OCO2
3.01

Look up log10(IC50) with Endothelin receptor type B (Homo sapiens) for this compound: COc1cccc(-c2ccsc2S(=O)(=O)Nc2onc(C)c2Br)c1
4.75

Look up log10(IC50) with Endothelin receptor type B (Homo sapiens) for this compound: Cn1cc(C(C(=O)NS(=O)(=O)c2ccc(C(F)(F)F)cc2)c2ccc3c(c2)OCO3)c2ccc(C(N)=O)cc21 (stereo not drawn)
2.36

Look up log10(IC50) with Endothelin receptor type B (Homo sapiens) for this compound: COc1ccc(NC(=O)c2sccc2S(=O)(=O)Nc2onc(C)c2Br)cc1
4.48

Look up log10(IC50) with Endothelin receptor type B (Homo sapiens) for this compound: CCn1cc(C(C(=O)NS(=O)(=O)c2ccc(C(C)C)cc2)c2ccc3c(c2)OCO3)c2ccc(C(=O)O)cc21 (stereo not drawn)
3.34

Look up log10(IC50) with Endothelin receptor type B (Homo sapiens) for this compound: Cc1noc(NS(=O)(=O)c2ccsc2C(=O)Nc2cccc(C(=O)O)c2)c1Br
5.07

Look up log10(IC50) with Endothelin receptor type B (Homo sapiens) for this compound: CCc1cc(C(=O)O)cc(CC)c1NC(=O)CN1C[C@H](c2ccc3c(c2)OCO3)[C@@H](C(=O)O)[C@@H]1c1ccc(OC)cc1
1.64

Look up log10(IC50) with Endothelin receptor type B (Homo sapiens) for this compound: CCC(CO)Cc1cc(OC)ccc1[C@@H]1c2nc(NC(C)C)ccc2[C@H](c2ccc3c(c2)OCO3)[C@H]1C(=O)O (stereo in doubt; form 1)
1.20

Look up log10(IC50) with Endothelin receptor type B (Homo sapiens) for this compound: COc1ccccc1Oc1c(NS(=O)(=O)c2ccc(C(C)(C)C)cc2)nc(C)nc1OCCO
1.85

Look up log10(IC50) with Endothelin receptor type B (Homo sapiens) for this compound: COc1ccc([C@H]2[C@H](C(=O)O)[C@@H](c3ccc4c(c3)OCO4)CN2CC(=O)Nc2c(OC)cccc2OC)cc1
1.76

Look up log10(IC50) with Endothelin receptor type B (Homo sapiens) for this compound: CCc1cccc(C)c1NC(=O)CN1C[C@H](c2ccc3c(c2)OCO3)[C@@H](C(=O)O)[C@@H]1c1ccc(OC)cc1
0.60
